Source of measurements: PubChem BioAssay (NCI)

- Test system: OVCAR-5 ovarian
- Assay Protocol: NCI-60 one-dose screen, 48 h
- Experimental Setup: 10 µM unless noted
Compounds without any hit were thinned out: in the full panel of roughly 83,000, 20% have a hit. Calls of active or inactive are those of the source. Rule for the calls: active = growth percent below 10; inactive = the rest.
Result category, one only: True for active, False for inactive

Solved cases below.
# Entry Smiles, Category Label
data = [
    ("C/C(=C(/c1ccc(Cl)cc1)c1ccc(OCCN2CCCCC2)cc1)c1ccccc1", "False"),
    ("C=CCC(=O)N[C@H](/C=C/C(=O)O)Cc1ccc(-c2cc(Cl)cc(Cl)c2)cc1", "False"),
    ("O=C(CNc1nc2ccccc2s1)Nc1ccc(-c2nc3ccccc3s2)cc1", "False"),
    ("O=C(Cn1c(=O)ccn(CCCCCCCCOc2ccc(Br)cc2)c1=O)Nc1ccc(Oc2ccc(Cl)cc2)cc1", "False"),
]

q: Which outcome was entered for the molecule `CCOC(=O)Sc1ncnc2nc[nH]c12` in this test?
a: False

q: What do you have for `C=C1CC[C@@H]2[C@](C)(COC(C)=O)[C@H](OC(C)=O)CC[C@@]2(C)[C@@H]1C/C=C1/C(=O)OC[C@H]1OC(C)=O` ?
a: False

q: Let us now turn to `CCCCN1C(=O)c2cccc3c(-c4ccc5c(c4)ncn5C4CCCCC4)ccc(c23)C1=O`
a: False

q: Then this molecule: `Nc1nc(Nc2ccccc2)c(C=Nc2ccccc2)c(=O)[nH]1`
a: False

q: Try `CCCCCCCC(=O)SCC/C=C/[C@@H]1CC(=O)NCc2cccc(n2)C2=N[C@@](C)(CS2)C(=O)N[C@@H](C(C)C)C(=O)O1` next.
a: True
